molecular target: human Esterase Plasma (ES), BCHE (gene 590); experiment: NVS_ENZ_hES: NovaScreen (NVS) Enzymatic Assay for human Esterase Plasma (ES) (AID 2283157)
Results filed as inconclusive are left out. The source made the active and inactive calls. The calls were made as follows: active = hit-call score of the fitted dose curve at least 0.9, where 1 is the maximum; inconclusive = response in the unintended direction; inactive = score below 0.9.
One label from this list, please: active, inactive

Tell me the assay call for "C1=Cc2cccc3cccc1c23" please.
inactive

Same for "Cc1cccc(N)c1N"
active

Same for "CNC(=O)Oc1cccc2c1OC(C)(C)C2"
active

Same for "CN(C)C(=O)Nc1ccc(Cl)cc1"
inactive

Same for "Nc1ccc(Cl)cc1N"
inactive

====

biological target: human Vitamin D Receptor (VDR), VDR (gene 7421); test: ATG_VDR_TRANS: Attagene TRANS-FACTORIAL HepG2 Assay for human Vitamin D Receptor (VDR) (AID 2283022)
Inconclusive results are not listed. Calls of active or inactive are those of the source. How the source made its calls: active means hit-call score of the fitted dose curve at least 0.9, where 1 is the maximum; inconclusive means response in the unintended direction; inactive means score below 0.9.
One label from this list, please: active, inactive

Tell me the assay call for "Nc1ccc(Cc2ccc(N)cc2)cc1" please.
inactive

Same for "Cc1cc(N=Nc2ccccc2C)ccc1N"
inactive

Same for "COC(=O)c1ccccc1N"
inactive

Same for "c1ccc2c(c1)-c1cccc3cccc-2c13"
inactive

Same for "CNC(=O)Oc1cccc2c1OC(C)(C)C2"
inactive

Same for "CC(C)N(Cc1ccccc1)C(=O)C(C)(C)C"
inactive

Same for "Oc1ccc2ccc3cccc4ccc1c2c34"
inactive

Same for "CN(C)c1ccccc1"
inactive

Same for "CC(C)(OOC(C)(C)c1ccccc1)c1ccccc1"
inactive

Same for "CC(C)(C)OOC(=O)c1ccccc1"
inactive

Same for "CO[C@@H]1[C@H](OC(=O)NC(=O)CCl)CC[C@]2(CO2)[C@H]1[C@@]1(C)O[C@@H]1CC=C(C)C"
inactive

Same for "Nc1ccc([N+](=O)[O-])cc1"
inactive

Same for "O=[N+]([O-])c1ccc(Oc2ccc(Cl)cc2Cl)cc1"
inactive

Same for "CCOC(=O)[C@]1(c2ccccc2)Oc2ccccc2[C@@H]1N"
inactive

Same for CC(C)(C)C(O)(CCc1ccc(Cl)cc1)Cn1cncn1 (configuration not stated)
inactive

Same for "C1=Cc2cccc3cccc1c23"
inactive

Same for "CCC[CH2][Sn]([Cl])([CH2]CCC)[CH2]CCC"
active

Same for "Cc1ccc(N=C=O)cc1N=C=O"
inactive

Same for "CN(C)c1ccc(C(=O)c2ccc(N(C)C)cc2)cc1"
inactive

Same for "[Cl-].[Cl-].[Hg+2]"
inactive

Same for "CCNS(=O)(=O)C(F)(F)C(F)(F)C(F)(F)C(F)(F)C(F)(F)C(F)(F)C(F)(F)C(F)(F)F"
inactive

Same for "Clc1ccc(C(c2ccc(Cl)cc2)C(Cl)Cl)cc1"
inactive

Same for "O=C(N[C@H](c1ccccc1)[C@@H]1CN2CCC1CC2)c1c(Cl)ccc(C(F)(F)F)c1Cl"
inactive

Same for "CCCSC(=O)N(CCC)CCC"
inactive

Same for CC(O)CCO (configuration not stated)
inactive

Same for "O=C1CCCO1"
inactive

Same for "OCCCl"
inactive

Same for "OCCCBr"
inactive

Same for "ClC1=C(Cl)[C@]2(Cl)[C@H]3[C@H]([C@@H]4C=C[C@H]3C4)[C@@]1(Cl)C2(Cl)Cl"
inactive

Same for "Nc1ccc(N=Nc2ccccc2)cc1"
inactive

Same for "O=[N+]([O-])C(Br)(CO)CO"
inactive

Same for "Clc1ccccc1Cl"
inactive
